molecular target: recombinant human secreted phospholipase A2 (Homo sapiens, UniProt P14555); assay: Chromogenic assay; Human Secreted Phospholipase A2 Inhibition Tests; details: racemic diheptanoyl thio-PC substrate 1 mM, Triton X-100 0.29 mM, pH 7.5, 40° C., 30 minutes, 405 nm; read-out: Inhibition of human secreted PLA2, IC50 ± mean deviation (3-4 tests)
Sequence (P14555 21-144): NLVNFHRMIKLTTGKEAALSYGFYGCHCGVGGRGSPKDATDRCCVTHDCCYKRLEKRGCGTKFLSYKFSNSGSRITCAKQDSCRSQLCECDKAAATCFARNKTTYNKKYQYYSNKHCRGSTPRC
endpoint name: IC50 (µM)

O=C(O)Cc1ccc(Oc2ccccc2)c2ccccc12 [Compound B, 4-Phenoxynaphth-1-yl acetic acid]: 51

I: NC(=O)Cc1ccc(Cc2ccccc2)c2ccccc12 [Compound A, 4-Benzyl-1-naphphylacetamide]
II: NC(=O)Cc1ccc(Oc2ccccc2)c2ccccc12 [Compound C, 4-Phenoxynaphth-1-yl acetamide]
Lookup: Record comparison, field IC50: mark the lower of I and II . Answer with the label corresponding to your selection.
Found: I
(I: 0.87 µM, II: 4.4 µM)
